The measured values listed here are drawn from patent US20120277143A1.

- Tested On: T1, human IL4 (human, UniProt P05112 25-153, biotinylated in the SPR and competition assays (sites not given))
- T1 construct: Peprotech #200-04, mature protein produced in E. coli; also called hIL4; Interleukin 4
- T1 sequence: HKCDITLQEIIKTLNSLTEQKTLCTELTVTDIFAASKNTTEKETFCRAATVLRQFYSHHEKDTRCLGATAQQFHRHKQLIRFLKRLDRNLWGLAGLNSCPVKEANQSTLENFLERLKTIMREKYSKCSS
- Procedure Summary: SPR ProteOn, biotin-IL4 on neutravidin chip, 1:1 fit
Measure Name: koff (s⁻¹)

[
  {
    "Binder": "C06_44F6 (designed binder, ankyrin repeat protein; His-tagged, IMAC-purified) DLGKELLEAARAGQDDEVHILMANGADVNALDDSGYTPLHLAAEDGHLEIVEVLLKHGADVNAMDNIGNTSLHLAAFDGHLEIVEVLLKYGADVNAVDLAGVTPLHVAAFYGHLEIVEVLLKHGADVNAQDKFGKTAFDISIDNGNEDLAEILQKLN",
    "Measure Name": "koff",
    "Unit Info": "s⁻¹",
    "Numeric Result": 0.0002
  },
  {
    "Binder": "C06_42C7 (designed binder, ankyrin repeat protein; His-tagged, IMAC-purified) DLGKKLLEAASAGQDDEVRILMANGADVNAVDHDGFTPLHLAAADGHLEIVEVLLKHGADVNADDNFGWTPLHLAAFFGHLEIVEVLLKHGADVNAKDQTGLTPLHLAAVDGHLEIVEVLLKHGADVNAQDKFGKTAFDISIDNGNEDLAEILQKLN",
    "Measure Name": "koff",
    "Unit Info": "s⁻¹",
    "Numeric Result": 0.000179
  },
  {
    "Binder": "C06_20B8 (designed binder, ankyrin repeat protein; His-tagged, IMAC-purified) DLGKKLLEAASAGQDDEVHILMANGADVNAVDHDGFTPLHLAAADGHLEIVEVLLKHGADVNADDNFGWTPLHLAAFFGHLEIVEVLLKHGADVNAKDQTGLTPLHLAAVDGHLEIVEVLLKHGADVNAQDKFGKTAFDISIDNGNEDLAEILQKLN",
    "Measure Name": "koff",
    "Unit Info": "s⁻¹",
    "Numeric Result": 0.000163
  }
]
